Where do these numbers come from? They come from patent US10577368B2.

molecular target: UniProt P18089; experiment: Off-target binding, α2B; conditions: read-out: Ki class at α2B
Sequence (P18089 whole entry): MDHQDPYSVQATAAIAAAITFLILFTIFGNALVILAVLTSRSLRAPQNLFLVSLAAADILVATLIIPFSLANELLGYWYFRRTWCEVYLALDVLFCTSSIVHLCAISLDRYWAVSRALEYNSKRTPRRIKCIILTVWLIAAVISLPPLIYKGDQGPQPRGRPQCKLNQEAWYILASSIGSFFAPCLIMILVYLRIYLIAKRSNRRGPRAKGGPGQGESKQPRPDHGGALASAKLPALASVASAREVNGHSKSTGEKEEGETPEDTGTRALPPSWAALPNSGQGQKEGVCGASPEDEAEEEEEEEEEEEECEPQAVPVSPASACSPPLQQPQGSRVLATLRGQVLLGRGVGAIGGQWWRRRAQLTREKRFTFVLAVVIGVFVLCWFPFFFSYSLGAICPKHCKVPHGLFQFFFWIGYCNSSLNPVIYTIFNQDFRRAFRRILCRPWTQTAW
pKi: −log10 of the molar value.
QUANTITY NAME: pKi

## Task // query pKi value for entry CNC(=O)C12CC1C(n1cnc3c(NCc4cccc(Cl)c4)nc(C#Cc4ccc(F)c(F)c4)nc31)C(O)C2O (single isomer, unassigned)
## Result 5.00 to 6.00

###

target: hA2AAR (Homo sapiens (Human), UniProt P29274); experiment: Radioligand binding at hA2AAR, HEK293 cell membranes, [3H]CGS21680; conditions: read-out: hA2AAR % inhibition
Sequence (P29274 whole entry): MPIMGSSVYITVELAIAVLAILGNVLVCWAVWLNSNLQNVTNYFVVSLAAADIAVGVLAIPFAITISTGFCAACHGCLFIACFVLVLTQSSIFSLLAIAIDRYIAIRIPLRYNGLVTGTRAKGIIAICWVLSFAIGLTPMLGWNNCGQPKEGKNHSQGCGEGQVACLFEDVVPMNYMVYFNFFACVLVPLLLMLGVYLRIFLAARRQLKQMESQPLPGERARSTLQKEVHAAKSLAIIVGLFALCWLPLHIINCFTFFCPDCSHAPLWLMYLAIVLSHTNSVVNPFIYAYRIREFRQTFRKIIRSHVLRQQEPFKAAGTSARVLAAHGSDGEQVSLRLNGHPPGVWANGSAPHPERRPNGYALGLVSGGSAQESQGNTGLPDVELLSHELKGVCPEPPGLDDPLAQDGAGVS
Catalogue of molecules with associated inhibition at 10 µM
Form field: result (number plus unit)

Recorded inhibition at 10 µM, per entry:
CNC(=O)[C@@]12C[C@@H]1[C@@H](n1cnc3c(NC)nc(C#Cc4ccncc4)nc31)[C@H](O)[C@@H]2O [Compound 300] | 2%
CNC(=O)[C@@]12C[C@@H]1[C@@H](n1cnc3c(NC)nc(C#Cc4ccc(Cl)s4)nc31)[C@H](O)[C@@H]2O [Compound 32] | 24%
CNC(=O)[C@@]12C[C@@H]1[C@@H](n1cnc3c(NC)nc(C#Cc4ccc(OC)cc4)nc31)[C@H](O)[C@@H]2O [Compound 11] | 24%

## Task // query inhibition at 10 µM value for entry CNC(=O)[C@@]12C[C@@H]1[C@@H](n1cnc3c(NC)nc(C#Cc4cc5ccccc5o4)nc31)[C@H](O)[C@@H]2O [Compound 33]
## Result 18%

## Task // query inhibition at 10 µM value for entry CNC(=O)[C@@]12C[C@@H]1[C@@H](n1cnc3c(NC)nc(C#Cc4cccs4)nc31)[C@H](O)[C@@H]2O [Compound 8]
## Result 20%

## Task // query inhibition at 10 µM value for entry CNC(=O)[C@@]12C[C@@H]1[C@@H](n1cnc3c(NC)nc(C#Cc4ccsc4)nc31)[C@H](O)[C@@H]2O [Compound 16]
## Result 3%
